Source listed as patent US20260151494A1.

# Target system: T1, human CD71 extracellular domain (CD71-ECD) (human, UniProt P02786 89-760)
# T1 construct: also called hCD71; human CD71-ECD
# T1 sequence (P02786 89-760): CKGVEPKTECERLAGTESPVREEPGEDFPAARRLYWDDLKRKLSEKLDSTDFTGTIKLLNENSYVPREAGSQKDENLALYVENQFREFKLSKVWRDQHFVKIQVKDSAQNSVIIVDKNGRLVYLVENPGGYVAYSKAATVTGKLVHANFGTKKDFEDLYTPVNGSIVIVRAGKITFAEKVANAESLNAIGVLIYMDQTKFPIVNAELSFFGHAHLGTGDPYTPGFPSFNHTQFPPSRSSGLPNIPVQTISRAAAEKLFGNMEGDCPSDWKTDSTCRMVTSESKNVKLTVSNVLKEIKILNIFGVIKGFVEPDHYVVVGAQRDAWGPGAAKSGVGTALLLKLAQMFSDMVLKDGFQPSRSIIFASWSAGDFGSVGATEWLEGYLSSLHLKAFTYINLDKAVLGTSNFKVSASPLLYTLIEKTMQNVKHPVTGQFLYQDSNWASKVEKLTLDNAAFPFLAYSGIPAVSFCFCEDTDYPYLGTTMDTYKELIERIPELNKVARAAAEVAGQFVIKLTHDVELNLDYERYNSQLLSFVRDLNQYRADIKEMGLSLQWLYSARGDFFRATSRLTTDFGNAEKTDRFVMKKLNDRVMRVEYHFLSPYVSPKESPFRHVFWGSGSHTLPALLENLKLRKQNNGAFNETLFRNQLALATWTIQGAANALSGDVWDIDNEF
# Experimental protocol: primary ELISA, RLU ratio to HSA
Label key: 1.0 means hCD71:HSA under 300; 0.0 means hCD71:HSA of 300 or more.

The examples below pair each entry with its known result.
# Binder, Group label
measured = [
    ("CD71-binding FN3 domain SEQ ID NO: 277 (designed binder) MSLPAPKNLVVSRVTEDSARLSWTAPDAAFDSFEIGYFELTYYGEAIVLTVPGSERSYDLTGLKPGTEYWVQIGGVKGGGFSEPLSAIFTT", 1.0),
    ("CD71-binding FN3 domain SEQ ID NO: 269 (designed binder) MSLPAPKNLVVSRVTEDSARLSWTAPDAAFDSFEIGYFENDYFGEAIVLTVPGSERSYDLTGLKPGTEYVVFIGGVKGGNWSAPLSAIFTT", 0.0),
    ("CD71-binding FN3 domain SEQ ID NO: 258 (designed binder) MSLPAPKNLVVSRVTEDSARLSWTAPDAAFDSFFIGYLEPQPPGEAIVLGVPGSERSYDLTGLKPGTEYNVTIQGVKGGFPSDPLVASFTT", 1.0),
    ("CD71-binding FN3 domain SEQ ID NO: 296 (designed binder) MSLPAPKNLVVSRVTEDSARLSWTAPDAAFDSFDIGYFELTWYGEAIVLTVPGSERSYDLTGLKPGTEYWVSIGGVKGGIWSSPLSAIFTT", 1.0),
    ("CD71-binding FN3 domain SEQ ID NO: 314 (designed binder) MGSLPAPKNLVVSRVTEDSARLSWTAPDAAFDSFEIGYFENLYLGEAIVLTVPGSERSYDLTGLKPGTEYWVQIGGVKGGNWSAPLSAIFTT", 1.0),
]

QUERY: Bench note: check whether CD71-binding FN3 domain SEQ ID NO: 312 (designed binder) MSLPAPKNLVVSRVTEDSARLSWTAPDAAFDSFEIGYFENLYLGEAIVLTIPGSERSYDLTGLKPGTEYWVQIGGVKGGNWSAPLSAIFTT shows hCD71:HSA below 300
RESULT: 0.0

QUERY: Is it true that hCD71:HSA reported for CD71-binding FN3 domain SEQ ID NO: 248 (designed binder) MSLPAPKNLVVSRVTEDSARLSWTAPDAAFDSFEIGYFENLYLGEAIVLTVPGSERSYDLTGLKPGTEYVVFIGGVKGGDFSPPLSAIFTT is less than 300?
RESULT: 0.0

QUERY: Decide: hCD71:HSA of CD71-binding FN3 domain SEQ ID NO: 264 (designed binder) MSLPAPKNLVVSRVTEDSARLSWTAPDAAFDSFFIGYLEPQPPGEAIALYVPGSERSYDLTGLKPGTEYNVTIQGVKGGFPSEPLVVHFTT strictly below 300?
RESULT: 0.0
